Assign max response, negative = inhibition to each entry below.
- tested-on: Cruzipain (Trypanosoma cruzi)
- test-description: qHTS Assay for Promiscuous and Specific Inhibitors of Cruzain (without detergent); note: nearly all actives have a fitted effect of over 40% in size
- condition-notes: purified cruzain, Z-FR-AMC fluorescence, no detergent
About 4,500 (2.2%) of roughly 200,000 compounds were called active. Not shown: some 12% with an inconclusive outcome. The entries come from a sample that favours actives as a whole.
Answers are plain numbers, in %.

Record excerpt, results attached:
CCn1c(C)c(C)c2cc(C(=O)NCCc3cc(OC)ccc3OC)ccc21 : 3.29
CNC(=S)NNC(=O)c1sccc1OCc1ccccc1 : -0.842
Cc1cccc(-n2ccnc2SCC(=O)Nc2cc(C(F)(F)F)ccc2Cl)c1 : -5.01
COc1ccccc1N1CCN(C(=O)Cn2nnc(-c3cccs3)n2)CC1 : -5.5
O=C(CNC(=O)c1ccco1)OCC(=O)c1ccccc1 : -5.08

Report max response, negative = inhibition for every entry below.
1. CCOC(=O)c1ccc(-c2ccc(/C=C(\C#N)C(=O)Nc3ccc(C)cc3)o2)cc1
2. CCOC(=O)c1ccc(-c2ccc(/C=C(\C#N)C(=O)Nc3ccc(OCC)cc3)o2)cc1
3. Cc1ccc(Cl)cc1N(C)C(=O)Cn1nc(Cc2cccnc2)c2ccccc2c1=O

Result:
1. -9.9
2. -8.32
3. 14.5

----------
- tested-on: Cruzipain (Trypanosoma cruzi)
- test-description: qHTS Assay for Promiscuous and Specific Inhibitors of Cruzain (without detergent); note: nearly all actives have a fitted effect of over 40% in size;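 for max response, negative = inhibition: plate controls were enzyme without inhibitor for no effect and buffer without enzyme for full effect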
- condition-notes: purified cruzain, Z-FR-AMC fluorescence, no detergent
Hit rate of the full screen: of about 200,000 compounds, about 4,500 (2.2%) were called active. Inconclusive results (about 12%) are left out. The sample as a whole holds a higher share of actives than the screen did.
measurement-kind: max response, negative = inhibition (%)
Give bare numbers, in %.

Record excerpt, results attached:
COc1cccc(NC(=O)Cn2c(=O)cc(C)c3c(C)nn(-c4cccc(F)c4)c32)c1 : -8.29
Cc1ccccc1NC(=O)Cn1c(=O)n(CC2CCC(C(=O)NCCc3ccccc3)CC2)c(=O)c2ccccc21 (stereo not given) : 3.54
COc1ccc(OCc2cccc(C(=O)N3CCCC3)c2)cc1 : 22.1
CCN(CCCNC(=O)c1cc2cc3cc(OC)ccc3nc2s1)c1ccccc1 : 0.913

Report max response, negative = inhibition for every entry below.
1. CCN(CC)S(=O)(=O)c1ccc2c(c1)nc(CN(C)C(=O)Nc1ccc(Cl)cc1)n2C
2. COc1ccc(NC(=O)CSc2nccn2Cc2ccc3c(c2)OCO3)cc1
3. COC(=O)c1ccc(CSc2ccccc2C)o1
4. COCC(C)n1c(SCc2ccc(C(=O)OC)o2)nc2ccccc2c1=O (stereo not given)
5. Cc1ccc(C(=O)c2c(NC(=O)c3ccccc3)sc(C)c2C)cc1

Result:
1. 2.49
2. -5.6
3. -6.13
4. 12.5
5. -26.9

Problem: Reported max response, negative = inhibition, compound CCc1ccc(CN(Cc2ccco2)C(=O)COc2ccc(Cl)c(C)c2)cc1 : ____
Result: -28.4

----------
- tested-on: Cruzipain (Trypanosoma cruzi)
- test-description: qHTS Assay for Promiscuous and Specific Inhibitors of Cruzain (without detergent); note: nearly all actives have a fitted effect of over 40% in size;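 for max response, negative = inhibition: plate controls were enzyme without inhibitor for no effect and buffer without enzyme for full effect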
- condition-notes: purified cruzain, Z-FR-AMC fluorescence, no detergent
Among all 200,000 compounds or so, about 4,500 (2.2%) were called active. Not shown: some 12% with an inconclusive outcome. This is one part of a sample in which actives are shown more often than they occur.
measurement-kind: max response, negative = inhibition (%)
One number for each entry, in %.

Cc1noc2ncnc(NCc3ccccc3Cl)c12 : -9.31
Cc1ccc(NC(=O)Cc2ccc(NC(=O)N3CCCCc4ccccc43)cc2)cc1 : 16.9

Report max response, negative = inhibition for every entry below.
1. CCN(C(=O)CSc1nnc(C)n2c1cc1occc12)c1ccccc1
2. Cc1ccc(CN2CCCn3nc(C(=O)NCc4ccccc4Cl)cc3C2=O)cc1
3. CC1CCN(c2nc3ccc(C(=O)N4CCN(c5ccccc5)CC4)cc3s2)CC1
4. O=C(CSc1nc2ccccc2[nH]1)N/N=C/C=C\c1ccccc1[N+](=O)[O-]
5. Cc1nc(SCCOc2ccc(Cl)cc2)[nH]c(=O)c1Cc1ccccc1
6. COc1ccc(-c2nnc(SC(C)C#N)o2)cc1 (stereo unspecified)
7. Cc1ccc(NC(=O)CSc2nc3ccccc3c3nc(CCn4cncc4C)nn23)cc1F
8. Cc1ccc(OCC(=O)N/N=C\c2ccco2)c(C)c1

Result:
1. -4.51
2. 12.6
3. -2.72
4. 10.4
5. -8.31
6. 2.59
7. 6.2
8. 4.92

Problem: Reported max response, negative = inhibition, compound CCCSc1ncc(Cl)c(C(=O)Nc2sc3c(c2C(=O)NCCOC)CCCC3)n1 : ____
Result: -6.84

----------
- tested-on: Cruzipain (Trypanosoma cruzi) (UniProt P25779)
- Sequence (P25779 123-467 limits assumed): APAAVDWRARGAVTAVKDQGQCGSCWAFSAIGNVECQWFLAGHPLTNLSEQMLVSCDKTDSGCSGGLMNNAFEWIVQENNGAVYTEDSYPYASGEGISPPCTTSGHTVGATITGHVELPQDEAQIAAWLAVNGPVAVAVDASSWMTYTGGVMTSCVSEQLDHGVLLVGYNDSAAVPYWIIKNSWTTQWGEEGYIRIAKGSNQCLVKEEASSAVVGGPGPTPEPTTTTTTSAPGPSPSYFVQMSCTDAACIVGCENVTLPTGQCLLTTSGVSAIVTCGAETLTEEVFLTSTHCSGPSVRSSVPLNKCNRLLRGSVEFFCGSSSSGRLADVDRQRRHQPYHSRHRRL
- test-description: qHTS Assay for Promiscuous and Specific Inhibitors of Cruzain (without detergent); note: nearly all actives have a fitted effect of over 40% in size;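 for max response, negative = inhibition: plate controls were enzyme without inhibitor for no effect and buffer without enzyme for full effect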
- condition-notes: purified cruzain, Z-FR-AMC fluorescence, no detergent
The campaign covered roughly 200,000 compounds. About 4,500 (2.2%) were called active. Roughly 12% stayed inconclusive and do not appear here. The entries come from a sample that favours actives as a whole.
Assign max response, negative = inhibition to each entry below.
Give bare numbers, in %.

Record excerpt, results attached:
c1ccc2[nH]c(NCCN3CCOCC3)nc2c1 : -8.64
Cc1ccc(OCCSc2nc(C)c(Cc3ccccc3)c(=O)[nH]2)cc1 : -1.11
Cc1ccccc1NC(=O)CCOc1ccccc1 : -3.79
COc1ccccc1OCCNc1cc(N2CCOCC2)ccc1[N+](=O)[O-] : 26.2
CCc1ccc(NC(=O)CN2C(=O)C(c3ccccc3)=NC23CCCCCC3)cc1 : -25.9

Let's switch to this compound now.
Problem: Reported max response, negative = inhibition, compound CC1=C(c2ccc(F)cc2)S(=O)(=O)N=C1N1CCC(C(=O)NCCc2ccccc2C)CC1 : ____
Result: -2.21

----------
Assign max response, negative = inhibition to each entry below.
- tested-on: Cruzipain (Trypanosoma cruzi)
- test-description: qHTS Assay for Promiscuous and Specific Inhibitors of Cruzain (without detergent); note: nearly all actives have a fitted effect of over 40% in size;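 for max response, negative = inhibition: plate controls were enzyme without inhibitor for no effect and buffer without enzyme for full effect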
- condition-notes: purified cruzain, Z-FR-AMC fluorescence, no detergent
The whole screen tested about 200,000 compounds, of which about 4,500 (2.2%) were called active. Inconclusive results (about 12%) are left out. The list comes from a sample in which actives are over-represented; it also holds close analogues and randomly drawn compounds.
Answers are plain numbers, in %.

Cc1ccc(NC(=O)CSc2nnc3[nH]c(=O)cc(C)n23)cc1Cl : -3.39

Report max response, negative = inhibition for every entry below.
1. OC(COc1ccc2c(c1)CCC2)CN1CCN(c2cccc(Cl)c2)CC1 (stereo unspecified)
2. CCCCS(=O)(=O)c1oc(-c2cccs2)nc1S(=O)(=O)c1ccccc1
3. CSc1nc(Nc2ccc(F)cc2)cc(-c2ccccc2)n1
4. COC(=O)c1cc(NC(=O)CCc2c(C)nc3c4c(C)cc(C)nc4nn3c2C)cc(C(=O)OC)c1
5. COc1ccc(NC(=O)c2ccc3oc(=O)c(S(=O)(=O)c4ccc(F)cc4)cc3c2)c(OC)c1

Result:
1.52
-4.72
-2.64
-14.1
-3.78

----------
- tested-on: Cruzipain (Trypanosoma cruzi)
- test-description: qHTS Assay for Promiscuous and Specific Inhibitors of Cruzain (without detergent); note: nearly all actives have a fitted effect of over 40% in size; note: potency is the fitted concentration of half-maximal effect
- condition-notes: purified cruzain, Z-FR-AMC fluorescence, no detergent
The whole screen tested about 200,000 compounds, of which about 4,500 (2.2%) were called active. Not shown: some 12% with an inconclusive outcome. The full list was thinned out, with actives kept by preference.
Assign Potency to each entry below.

Report Potency for every entry below.
1. O=C1C2N=NN(CC(=O)N3N=C(c4cccc5ccccc45)CC3c3ccccc3)C2C(=O)N1c1ccccc1 (stereo not given)
2. Cc1ccc(C2=N/C(=C\c3ccc(OS(=O)(=O)c4ccc(C)cc4)cc3)C(=O)O2)cc1
3. Cc1cc(C(=O)COC(=O)CNC(=O)c2ccc(F)cc2)c(C)n1Cc1ccco1
4. CCOc1cccc(C(=O)Nc2nnc(-c3cccs3)s2)c1
5. COc1ccc(C2CC(c3ccccc3)=NN2C(=O)c2ccc(Cl)c([N+](=O)[O-])c2)cc1 (stereo not given)
6. Cc1ccc(-n2c(SCC(=O)N/N=C/C=C/c3ccccc3[N+](=O)[O-])nc3ccccc3c2=O)cc1
7. Cc1ccc(O)c(NC(=O)COc2cc(C)ccc2C)c1

Result:
["5.01 µM (active)", "20 µM (active)", "15.8 µM (active)", "15.8 µM (active)", "10 µM (active)", "25.1 µM (active)", "31.6 µM (active)"]

Report Potency for every entry below.
1. CC(C)(C)C1CCC(=NNC(=O)c2cc(-c3ccccc3)n[nH]2)CC1 (stereo not given)
2. N#Cc1nc(N)nc(N(c2ccccc2)c2ccccc2)n1
3. COc1ccc(N2C(=O)CS(=O)(=O)C23C(=O)N(Cc2ccc(C)cc2)c2ccccc23)cc1Cl (stereo not given)
4. CCCCCCC(=O)Nc1nc(C)c(-c2csc(Nc3cc(Cl)ccc3OC)n2)s1
5. Cc1cccc(C(=O)NCC(=O)OCC(=O)N2CC3(C)CC2CC(C)(C)C3)c1 (stereo not given)

Result:
["12.6 µM (active)", "1.58 µM (active)", "2.51 µM (active)", "3.16 µM (active)", "12.6 µM (active)"]

Report Potency for every entry below.
1. COc1ccc(NC(=O)Cn2c(=O)n(Cc3ccc(C(=O)NCc4ccccc4Cl)cc3)c(=O)c3ccccc32)cc1
2. CN(c1ccccc1)c1ccc(/C=c2\s/c(=C(/C#N)C(=O)C(C)(C)C)n(Cc3ccco3)c2=O)cc1
3. O=C1c2cccc(OCC(=O)N3N=C(c4cccs4)CC3c3ccc(F)cc3)c2CCN1Cc1ccccc1 (stereo not given)
4. Cc1ccc(C(=O)NNC(=O)c2cc3cc4ccccc4nc3s2)cc1

Result:
1: 10 µM (active); 2: 3.16 µM (active); 3: 12.6 µM (active); 4: 15.8 µM (active)

Report Potency for every entry below.
1. CN(C(=O)CSc1nc(C2CC2)nc2ccccc12)c1nc(-c2ccccc2)cs1
2. CCOC(=O)CSc1nnc(NC(=O)c2cccc(S(=O)(=O)N3CCCCC3)c2)s1
3. Cc1csc(NC(=O)c2ccc(-c3ccc(Cl)cc3Cl)o2)n1
4. Cc1ccc(CCC(=O)Nc2ncc(Cc3cc(Cl)ccc3Cl)s2)o1

Result:
1. 3.16 µM (active)
2. 20 µM (active)
3. 10 µM (active)
4. 25.1 µM (active)
